The origin of these recorded values is patent US20210340231A1.

Target: T1, CTNI quality control recombinant protein (PK2-CTNI-1, 170120, produced by the applicant) (human, UniProt P19429 2-210, limits assumed)
T1 construct: also called cardiac troponin I
T1 sequence (P19429 2-210 limits assumed): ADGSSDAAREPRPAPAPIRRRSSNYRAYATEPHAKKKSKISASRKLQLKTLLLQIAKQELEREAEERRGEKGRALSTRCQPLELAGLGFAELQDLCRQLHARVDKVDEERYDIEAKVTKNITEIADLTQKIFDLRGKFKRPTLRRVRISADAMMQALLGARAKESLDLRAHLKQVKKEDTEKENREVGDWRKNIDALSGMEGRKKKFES
Method Description: AMC sensor kinetics, antibody captured, cTnI analyte
Endpoint Name: kon (M⁻¹ s⁻¹)
All answers are understood in M⁻¹ s⁻¹, so give the number only.

Some binders with recorded kon:
1. WT 1-3 (antibody, V domains shown, built as for Mutation 1) VH: EVQLQQSGAELVKPGASVKLSCTASGFNIKEYYMHWMKQRTEQGLDWIGRIEPEDGETKYAPEFQGKATITADTSSNTAYLQLSTLTSEDTAVYYCARYYTSYLPFVYWGQGTLVTASA VL: DVVMTQTPLSLSVSLGDQASISCRSSQSLLYSNKHTYLHWYLQKPGQSPKLLIFQLSQRFSGVPDRFSGSGSGTDFTLKINRVEAEDLGVYFCSNSTHIPYTFGSGTKLEIKR    633000
2. WT 1-50 (antibody, V domains shown, Built as for Mutation 1) VH: EVQLQQSGAELVKPGASVKLSCTASGFNLKEYYMHWMKQRTEQGLDWIGRIEPEDGETRYAPEFQGKATITADTSSNTAYLQLSTLTSEDTAVYYCARYYTSYLPFVYWGQGTLVTASA VL: DVVMTQTPLSLSVSLGDQASISCRSSQSLIYSNKHTYLHWYLQKPGQSPKLLIFQLSQRFSGVPDRFSGSGSGTDFTLKINRVEAEDLGVYFCSNSTHLPYTFGSGTKLEIKR    696000
3. WT 1-14 (antibody, V domains shown, built as for Mutation 1) VH: EVQLQQSGAELVKPGASVKLSCTASGFNIKEYFMHWMKQRTEQGLDWIGRIEPEDAETKYAPEFQGKATITADTSSNTAYLQLSTLTSEDTAVYYCARYYTSYIPFVYWGQGTLVTASA VL: DVVMTQTPLSLSVSLGDQASISCRSSQSLLYSNKHTYLHWYLQKPGQSPKLLIFQISQRFSGVPDRFSGSGSGTDFTLKINRVEAEDLGVYFCSNSTHIPFTFGSGTKLEIKR    532000

Now let's try a different one.
So, WT 1-29 (antibody, V domains shown, built as for Mutation 1) VH: EVQLQQSGAELVKPGASVKLSCTASGFNLKEYYMHWMKQRTEQGLDWIGRIEPEDGETKYAPEFQGKATITADTSSNTAYLQLSTLTSEDTAVYYCARYYTSYVPFVYWGQGTLVTASA VL: DVVMTQTPLSLSVSLGDQASISCRSSQSLLYSNKHTYLHWYLQKPGQSPKLLIFQVSQRFSGVPDRFSGSGSGTDFTLKINRVEAEDLGVYFCSNSTHLPYTFGSGTKLEIKR ? Its kon was 89600
